# target.system: Renin (Homo sapiens)
# assay.overview: In vitro inhibitory activity against human plasma renin
pIC50: −log10 of the molar value. Numbered stars: 1 amine (or outer) side, 2 acyl side, 3 side chain; on linkers, the order of the positions; unused ones are H or OH. Square brackets hold non-standard residues; d marks the D form. Peptide text beside a SMILES is read from it. * marks the point of attachment. ξ: configuration not given here. X1 = CC(C)CC(N[*:1])C(O)CC(=O)[*:2]; Ile(3ξ) = CCC(C)[C@H](N)C(=O)O; For = O=C*

# compound, target.system, result.modifier, pIC50
data = [
    ("CC(=O)N[C@@H](Cc1cn(C=O)c2ccccc12)C(=O)N1CCC[C@H]1C(=O)N[C@@H](Cc1ccccc1)C(=O)N[C@@H](Cc1c[nH]cn1)C(=O)NC(CC(C)C)C(O)CC(=O)N[C@H](C(N)=O)C(C)C (some centres undefined) (Ac-W(For)PFH[X1]V-NH2)", "Renin (Homo sapiens)", "=", 9.28),
    ("CC(=O)N[C@H](Cc1cn(C=O)c2ccccc12)C(=O)N1CCC[C@H]1C(=O)N[C@@H](Cc1ccccc1)C(=O)N[C@@H](Cc1cnc[nH]1)C(=O)N[C@@H](Cc1ccccc1)C(=O)N[C@@H](Cc1ccccc1)C(=O)N[C@H](C(=O)N[C@@H](Cc1cn(C=O)c2ccccc12)C(N)=O)C(C)C", "Renin (Homo sapiens)", "<", 4.00),
    ("CCC(C)[C@H](NC(=O)CC(O)C(CC(C)C)NC(=O)[C@H](Cc1c[nH]cn1)NC(=O)[C@H](Cc1ccccc1)NC(=O)[C@@H]1CCCN1C=O)C(N)=O (some centres undefined) (For-PFH[X1][Ile(3ξ)]-NH2)", "Renin (Homo sapiens)", "=", 7.51),
    ("CC(=O)N[C@@H](Cc1cn(C=O)c2ccccc12)C(=O)NCC(=O)N[C@@H](Cc1ccccc1)C(=O)N[C@@H](Cc1cnc[nH]1)C(=O)N[C@@H](Cc1ccccc1)C(=O)N[C@@H](Cc1ccccc1)C(=O)N[C@H](C(=O)N[C@@H](Cc1cn(C=O)c2ccccc12)C(N)=O)C(C)C (Ac-W(For)GFHFFVW(For)-NH2)", "Renin (Homo sapiens)", "<", 4.00),
]

* * *

# target.system: Renin (Homo sapiens, UniProt P00797)
# Sequence (P00797 whole entry): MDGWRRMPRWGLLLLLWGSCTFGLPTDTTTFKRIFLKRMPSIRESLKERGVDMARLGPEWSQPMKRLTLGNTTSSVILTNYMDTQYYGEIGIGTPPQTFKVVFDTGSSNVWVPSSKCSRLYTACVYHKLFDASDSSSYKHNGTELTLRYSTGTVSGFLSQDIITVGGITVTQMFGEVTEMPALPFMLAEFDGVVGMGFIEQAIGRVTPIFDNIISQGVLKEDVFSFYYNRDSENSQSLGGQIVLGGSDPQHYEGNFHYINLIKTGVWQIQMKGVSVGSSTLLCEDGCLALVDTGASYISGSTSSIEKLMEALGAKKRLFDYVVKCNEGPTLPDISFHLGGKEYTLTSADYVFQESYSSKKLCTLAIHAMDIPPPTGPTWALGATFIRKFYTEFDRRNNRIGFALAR
# assay.overview: In vitro inhibitory activity against human plasma renin
Numbered stars: 1 amine (or outer) side, 2 acyl side, 3 side chain; on linkers, the order of the positions; unused ones are H or OH. Square brackets hold non-standard residues; d marks the D form. Peptide text beside a SMILES is read from it. * marks the point of attachment. ξ: configuration not given here. Sta(3ξ) = CC(C)C[C@H](N[*:1])C(O)CC(=O)[*:2]; X3 = CC(C)CC(N[*:1])C(O)C(=O)[*:2]; X2 = CC(C)CC(N*)C(O)CC(N)=O; Cbz = O=C(OCc1ccccc1)*; Boc = CC(C)(C)OC(=O)*; For = O=C*
reported.metric: log10 of IC50 (log10 of the value in nM)

# molecule, log10 of IC50
measured = [
    ("CC[C@H](C)[C@H](NC(=O)CC(O)[C@H](CC(C)C)NC(=O)[C@H](Cc1cnc[nH]1)NC(=O)[C@H](Cc1ccccc1)NC(=O)[C@@H]1CCCN1C(=O)[C@H](Cc1cnc[nH]1)NC(C)=O)C(N)=O (stereo partly drawn) (Ac-HPFH[Sta(3ξ)]I-NH2)", 0.83),
    ("CC(=O)N[C@@H](Cc1cn(C=O)c2ccccc12)C(=O)N1CCC[C@H]1C(=O)N[C@@H](Cc1ccccc1)C(=O)N[C@@H](Cc1cnc[nH]1)C(=O)NC(CC(C)C)C(O)CC(N)=O (stereo partly drawn) (Ac-W(For)PFH-X2)", 0.58),
    ("CC[C@H](C)[C@H](NC(=O)CC(O)[C@H](CC(C)C)NC(=O)[C@H](Cc1c[nH]cn1)NC(=O)[C@H](Cc1ccccc1)NC(=O)[C@@H]1CCCN1C(=O)[C@@H](Cc1cn(C=O)c2ccccc12)NC(C)=O)C(N)=O (stereo partly drawn)", 1.15),
    ("CC(=O)N[C@H](Cc1c[nH]c2ccccc12)C(=O)N1CCC[C@H]1C(=O)N[C@@H](Cc1ccccc1)C(=O)N[C@@H](Cc1c[nH]cn1)C(=O)N[C@@H](Cc1ccccc1)C(=O)N[C@@H](Cc1ccccc1)C(=O)N[C@H](C(=O)N[C@@H](Cc1cn(C=O)c2ccccc12)C(N)=O)C(C)C", 3.70),
    ("CC[C@H](C)[C@H](NC(=O)[C@@H](C[C@H](O)[C@H](CC(C)C)NC(=O)[C@H](Cc1c[nH]cn1)N(C)C(=O)[C@H](Cc1ccccc1)NC(=O)[C@@H]1CCCN1C(=O)OC(C)(C)C)C(C)C)C(=O)NCc1ccccn1", -0.96),
    ("CC[C@H](C)[C@H](NC(=O)C(O)C(CC(C)C)NC(=O)[C@H](Cc1c[nH]cn1)NC(=O)[C@H](Cc1ccccc1)NC(=O)[C@@H]1CCCN1C(=O)[C@H](CCCN=C(N)N)NC(=O)[C@H](CCCN=C(N)N)NC(=O)OCc1ccccc1)C(=O)N[C@@H](Cc1c[nH]cn1)C(=O)N[C@@H](CCCCNC(=O)OC(C)(C)C)C(=O)OC (stereo partly drawn) (Cbz-RRPFH[X3]IHK(Boc)-OMe)", 0.00),
    ("CC[C@H](C)[C@H](NC(=O)[C@@H](NC[C@H](CC(C)C)NC(=O)[C@H](Cc1c[nH]cn1)NC(=O)[C@H](Cc1ccccc1)NC(=O)[C@@H]1CCCN1C(=O)[C@H](Cc1c[nH]cn1)NC(=O)[C@@H]1CCCN1)C(C)C)C(=O)N[C@@H](Cc1c[nH]cn1)C(=O)N[C@@H](CCCCN)C(=O)O", 1.00),
]

* * *

# target.system: UniProt P00797
# assay.overview: In vitro inhibitory activity against human plasma renin
Peptide text beside a SMILES is read from it. * marks the point of attachment. X4 = CC(C)C[C@H](N*)C(O)C[C@H](C(N)=O)C(C)C; For = O=C*

# compound, target.system, unit.text, result.modifier, IC50
data = [
    ("CC(=O)N[C@@H](Cc1cn(C=O)c2ccccc12)C(=O)N1CCC[C@H]1C(=O)N[C@@H](Cc1ccccc1)C(=O)N[C@@H](Cc1cnc[nH]1)C(=O)N[C@@H](Cc1ccccc1)C(=O)N[C@@H](Cc1ccccc1)C(=O)N[C@H](C(=O)N[C@@H](Cc1cn(C=O)c2ccccc12)C(N)=O)C(C)C", "UniProt P00797", "nM", "=", 500),
    ("CC(=O)N[C@@H](Cc1cn(C=O)c2ccccc12)C(=O)N1CCC[C@H]1C(=O)N[C@@H](Cc1ccccc1)C(=O)N[C@@H](Cc1c[nH]cn1)C(=O)N[C@@H](CC(C)C)C(O)C[C@H](C(N)=O)C(C)C (some centres undefined) (Ac-W(For)PFH-X4)", "UniProt P00797", "nM", "=", 0.31),
    ("CC(=O)N[C@@H](Cc1c[nH]cn1)C(=O)N[C@@H](Cc1ccccc1)C(=O)N[C@@H](Cc1cn(C=O)c2ccccc12)C(=O)N[C@@H](Cc1ccccc1)C(=O)N[C@@H](Cc1ccccc1)C(=O)N[C@H](C(=O)N[C@@H](Cc1cn(C=O)c2ccccc12)C(N)=O)C(C)C (Ac-HFW(For)FFVW(For)-NH2)", "UniProt P00797", "nM", ">", 100000),
]

* * *

# target.system: Renin (Sus scrofa)
# assay.overview: In vitro inhibitory activity towards porcine kidney renin
Numbered stars: 1 amine (or outer) side, 2 acyl side, 3 side chain; on linkers, the order of the positions; unused ones are H or OH. Square brackets hold non-standard residues; d marks the D form. Peptide text beside a SMILES is read from it. X1 = CC(C)CC(N[*:1])C(O)CC(=O)[*:2]
Below, each entry is listed with its recorded IC50.
reported.metric: IC50 (µM)

# molecule, reported.metric, readout.value
rows = [
    ("CC(C)CC(NC(=O)[C@H](Cc1c[nH]cn1)NC(=O)[C@H](Cc1ccccc1)NC(=O)[C@@H]1CCCN1)C(O)CC(=O)N[C@@H](CC(C)C)C(=O)N[C@@H](Cc1ccccc1)C(N)=O (some centres not stated) (H-PFH[X1]LF-NH2)", "IC50", 0.2),
    ("CC(C)CC(NC(=O)[C@@H](N)Cc1cnc[nH]1)C(O)CC(=O)N[C@@H](CC(C)C)C(=O)N[C@@H](Cc1ccccc1)C(N)=O (some centres not stated)", "IC50", 370),
]
